Reference source for all entries: patent US12522594B2

Tgt: AHR (Homo sapiens)
Sequence (P35869 11-848): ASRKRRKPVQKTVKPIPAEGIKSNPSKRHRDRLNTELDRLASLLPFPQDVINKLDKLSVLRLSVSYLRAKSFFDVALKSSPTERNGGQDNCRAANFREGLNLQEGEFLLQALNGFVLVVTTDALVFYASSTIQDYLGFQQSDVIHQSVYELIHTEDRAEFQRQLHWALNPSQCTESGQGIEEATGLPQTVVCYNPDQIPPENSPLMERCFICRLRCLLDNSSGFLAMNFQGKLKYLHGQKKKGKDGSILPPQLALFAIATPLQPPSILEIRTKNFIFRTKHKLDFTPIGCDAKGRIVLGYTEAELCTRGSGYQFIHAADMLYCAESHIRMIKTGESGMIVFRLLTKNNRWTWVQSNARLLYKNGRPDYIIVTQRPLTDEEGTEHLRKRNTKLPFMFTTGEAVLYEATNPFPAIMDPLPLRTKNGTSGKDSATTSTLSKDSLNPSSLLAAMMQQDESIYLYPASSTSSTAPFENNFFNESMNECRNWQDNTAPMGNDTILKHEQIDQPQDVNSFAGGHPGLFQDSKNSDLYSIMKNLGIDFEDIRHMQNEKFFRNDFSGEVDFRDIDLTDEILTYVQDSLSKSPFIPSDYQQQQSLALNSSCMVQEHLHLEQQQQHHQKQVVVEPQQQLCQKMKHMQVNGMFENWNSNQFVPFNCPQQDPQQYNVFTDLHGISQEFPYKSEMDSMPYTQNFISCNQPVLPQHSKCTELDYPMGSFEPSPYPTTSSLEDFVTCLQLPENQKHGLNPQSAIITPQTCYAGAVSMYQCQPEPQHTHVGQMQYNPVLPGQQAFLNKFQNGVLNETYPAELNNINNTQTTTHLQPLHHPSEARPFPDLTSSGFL
Assay info: In vitro assay 1: antagonism in human cell line (transactivation assay, U87 cells prestimulated with kynurenic acid, DRE firefly luciferase reporter)
Type: cell-based
Parameters: host or cells: U87 glioblastoma cells, stably transfected with DRE firefly luciferase and renilla reporter constructs
Stated conditions: 150 uM kynurenic acid, 20 hours, read-out: Assay 1: AHR-luc Hum Antagonism IC50
Reported log10 of IC50 is given for each of the following compounds.
The common logarithm of IC50 in µM is what is listed.

Here are 5 compounds together with their reported answers.
O=C(N[C@H]1CCC[C@@H]1O)c1cc(-c2ccc(OC(F)(F)F)cc2)nn(-c2cccnc2)c1=O [Example 132] | -2.16
Cc1ccc(-c2cc(C(=O)NCC(O)C(F)F)c(=O)n(-c3cnn(C)c3)n2)cc1 (centres unmarked) [Example 13] | -1.49
C[C@H](NC(=O)c1cc(-c2ccc(C(F)(F)F)cc2)nn(-c2cnn(C(F)F)c2)c1=O)C(C)(C)O [Example 228] | -1.88
O=C(N[C@H](CO)C(F)(F)F)c1cc(-c2ccc(C(F)F)cc2)nn(-c2cccnc2)c1=O [Example 127] | -2.38
O=C(N[C@H]1CCC[C@H]1O)c1cc(-c2ccc(Cl)cc2)nn(-c2ccnnc2)c1=O [Example 167] | -0.62

What value of measured log10 of IC50 is listed for C[C@H](NC(=O)c1cc(-c2ccc(C(F)F)cc2)nn(-c2cccnc2)c1=O)C(C)(C)O [Example 319] ?
-1.45

What value of measured log10 of IC50 is listed for O=C(N[C@@H](CO)C(F)(F)F)c1cc(-c2ccc(Cl)cc2)nn(-c2cccnc2)c1=O [Example 95] ?
-1.21

What value of measured log10 of IC50 is listed for O=C(N[C@H]1CCCC[C@H]1O)c1cc(-c2ccc(Cl)cc2)nn(-c2ccnnc2)c1=O [Example 164] ?
-0.80

What value of measured log10 of IC50 is listed for O=C(N[C@H](CO)C(F)(F)F)c1cc(-c2ccc(Cl)cc2)nn(-c2cccnc2)c1=O [Example 96] ?
-2.44

What value of measured log10 of IC50 is listed for C[C@H](NC(=O)c1cc(-c2ccc(C(F)(F)F)cc2)nn(-c2cccnc2)c1=O)C(C)(C)O [Example 226] ?
-2.23

What value of measured log10 of IC50 is listed for Cn1cc(-n2nc(-c3ccc(OC(F)(F)F)cc3)cc(C(=O)NCC(C)(C)O)c2=O)cn1 [Example 59] ?
-1.70

What value of measured log10 of IC50 is listed for O=C(N[C@H]1COC[C@H]1O)c1cc(-c2ccc(C(F)F)nc2)nn(-c2cccnc2)c1=O (relative stereo) [Example 182] ?
0.79

What value of measured log10 of IC50 is listed for CC(C)(O)CNC(=O)c1cc(-c2ccc(OC(F)(F)F)cc2)nn(-c2cccnc2)c1=O [Example 292] ?
-1.34

What value of measured log10 of IC50 is listed for C[C@@H](CO)NC(=O)c1cc(-c2ccc(Cl)cc2)nn(-c2cnsc2)c1=O [Example 194] ?
-2.51

What value of measured log10 of IC50 is listed for O=C(NC[C@H](O)C(F)(F)F)c1cc(-c2ccc(Cl)cc2)nn(-c2cncnc2)c1=O [Example 237] ?
-2.03

What value of measured log10 of IC50 is listed for C[C@@H](CO)NC(=O)c1cc(-c2ccc(Cl)cc2)nn(-c2cncc(F)c2)c1=O [Example 80] ?
-1.57

What value of measured log10 of IC50 is listed for O=C(NC[C@H](O)C(F)(F)F)c1cc(-c2ccc(Cl)cc2)nn(-c2cnsc2)c1=O [Example 199] ?
-3.16

What value of measured log10 of IC50 is listed for C[C@@H](CO)NC(=O)c1cc(-c2ccc(OC(F)F)cc2)nn(-c2cccnc2)c1=O [Example 332] ?
-1.02

What value of measured log10 of IC50 is listed for CC(C)(O)CNC(=O)c1cc(-c2ccc(C(F)(F)F)cc2)nn(-c2cccnc2)c1=O [Example 115] ?
-2.58

What value of measured log10 of IC50 is listed for COC(=O)[C@@H](CO)NC(=O)c1cc(-c2ccc(Cl)cc2)nn(-c2cccnc2)c1=O [Example 274] ?
-0.95

What value of measured log10 of IC50 is listed for Cn1cc(-n2nc(-c3ccc(Cl)cc3)cc(C(=O)N[C@@H]3COC[C@@H]3O)c2=O)cn1 (single isomer, unassigned; enantiomer 1) [Example 44] ?
-1.94
